- SUBJECT_OF_TEST: PXR (NR1I2); CYP3A4 gene expression (Homo sapiens)
- ASSAY_OVERVIEW: Activation of human PXR expressed in human DPX2 cells assessed as induction of CYP3A4 gene expression at 0.1 uM measured after 24 hrs by luciferase reporter gene assay relative to control
- Assay type: cell-based
- EXPERIMENTAL_CONTEXT: DPX2 cells expressing human PXR, read-out: FC
PROPERTY: fold induction at 24 h, 0.1 µM
The response must contain the number and no unit.

For the compound shown here, C/C=C1\CC[C@H]2[C@@H]3CC=C4[C@@H](O)[C@@H](O)[C@@H]5C[C@]4(C(=O)O5)[C@H]3CC[C@]12C , give the reported fold induction at 24 h, 0.1 µM. 1.3

---

- SUBJECT_OF_TEST: PXR (NR1I2); CYP3A4 gene expression (Homo sapiens, UniProt O75469)
- Sequence (O75469 whole entry): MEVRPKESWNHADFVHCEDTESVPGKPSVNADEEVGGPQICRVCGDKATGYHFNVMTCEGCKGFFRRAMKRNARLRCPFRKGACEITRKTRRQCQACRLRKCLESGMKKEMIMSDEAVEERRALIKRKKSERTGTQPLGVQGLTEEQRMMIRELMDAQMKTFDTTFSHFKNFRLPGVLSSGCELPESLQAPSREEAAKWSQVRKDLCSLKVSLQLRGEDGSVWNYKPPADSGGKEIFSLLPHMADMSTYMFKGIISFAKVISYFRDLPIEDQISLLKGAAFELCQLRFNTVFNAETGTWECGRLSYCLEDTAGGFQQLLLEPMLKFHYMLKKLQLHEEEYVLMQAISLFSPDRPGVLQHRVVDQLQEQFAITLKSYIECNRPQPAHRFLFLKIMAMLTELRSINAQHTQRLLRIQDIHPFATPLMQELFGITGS
- ASSAY_OVERVIEW: Activation of human PXR expressed in human DPX2 cells assessed as induction of CYP3A4 gene expression at 40 uM measured after 24 hrs by luciferase reporter gene assay relative to control
- Format: cell-based
- EXPERIMENTAL_CONTEXT: DPX2 cells expressing human PXR, read-out: FC
PROPERTY: fold induction at 24 h, 40 µM
Answer with the value's number alone.

// fold induction at 24 h, 40 µM lookup, key: C/C=C1\CC[C@H]2[C@@H]3CC=C4[C@@H](O)[C@@H](O)[C@@H]5C[C@]4(C(=O)O5)[C@H]3CC[C@]12C 3.7

---

- SUBJECT_OF_TEST: UniProt O75469
- ASSAY_OVERVIEW: Activation of human PXR expressed in human DPX2 cells assessed as induction of CYP3A4 gene expression at 4 uM measured after 24 hrs by luciferase reporter gene assay relative to control
- Type: cell-based
- EXPERIMENTAL_CONTEXT: DPX2 cells expressing human PXR, read-out: FC
PROPERTY: fold induction at 24 h, 4 µM
Please reply with the number alone, leaving off any unit.

Tell me reported fold induction at 24 h, 4 µM for C/C=C1\CC[C@H]2[C@@H]3CC=C4[C@@H](O)[C@@H](O)[C@@H]5C[C@]4(C(=O)O5)[C@H]3CC[C@]12C , tested with UniProt O75469. 1.2

---

- SUBJECT_OF_TEST: PXR (NR1I2); CYP3A4 gene expression (Homo sapiens, UniProt O75469)
- ASSAY_OVERVIEW: Activation of human PXR expressed in human DPX2 cells assessed as induction of CYP3A4 gene expression at 0.4 uM measured after 24 hrs by luciferase reporter gene assay relative to control
- Assay type: cell-based
- EXPERIMENTAL_CONTEXT: DPX2 cells expressing human PXR, read-out: FC
PROPERTY: fold induction at 24 h, 0.4 µM
Just the number, please.

I'd like to know its fold induction at 24 h, 0.4 µM. The compound in question is C/C=C1\CC[C@H]2[C@@H]3CC=C4[C@@H](O)[C@@H](O)[C@@H]5C[C@]4(C(=O)O5)[C@H]3CC[C@]12C 1.4

---

- SUBJECT_OF_TEST: Beta-secretase 1 (Homo sapiens, UniProt P56817)
- Sequence (P56817 whole entry): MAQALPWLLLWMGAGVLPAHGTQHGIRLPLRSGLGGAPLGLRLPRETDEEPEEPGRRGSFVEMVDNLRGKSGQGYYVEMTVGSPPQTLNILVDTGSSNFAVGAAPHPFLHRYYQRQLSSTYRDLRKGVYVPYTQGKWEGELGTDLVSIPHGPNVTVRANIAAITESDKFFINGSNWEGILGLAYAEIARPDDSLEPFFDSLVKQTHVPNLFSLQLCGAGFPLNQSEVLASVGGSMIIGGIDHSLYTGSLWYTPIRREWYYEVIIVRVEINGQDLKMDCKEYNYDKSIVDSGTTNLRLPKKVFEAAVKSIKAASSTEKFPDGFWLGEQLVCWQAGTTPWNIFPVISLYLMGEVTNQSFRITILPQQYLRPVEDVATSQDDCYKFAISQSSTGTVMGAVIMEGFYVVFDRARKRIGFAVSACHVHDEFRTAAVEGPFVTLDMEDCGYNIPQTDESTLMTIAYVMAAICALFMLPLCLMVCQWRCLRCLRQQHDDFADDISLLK
PROPERTY: pIC50
Bear in mind: pIC50 is minus log10 of a mol/L concentration; give just that figure.

Report pIC50 for CC[C@]1(C)CCC2=C1CC[C@H]1[C@H]2C[C@@H](Cl)C2=C[C@@H](O)[C@@H]3C[C@@]21C(=O)O3 tested on Beta-secretase 1 (Homo sapiens, UniProt P56817). 4.09
